Target: human A2A receptors (Homo sapiens (Human))
Sequence (P29274 whole entry): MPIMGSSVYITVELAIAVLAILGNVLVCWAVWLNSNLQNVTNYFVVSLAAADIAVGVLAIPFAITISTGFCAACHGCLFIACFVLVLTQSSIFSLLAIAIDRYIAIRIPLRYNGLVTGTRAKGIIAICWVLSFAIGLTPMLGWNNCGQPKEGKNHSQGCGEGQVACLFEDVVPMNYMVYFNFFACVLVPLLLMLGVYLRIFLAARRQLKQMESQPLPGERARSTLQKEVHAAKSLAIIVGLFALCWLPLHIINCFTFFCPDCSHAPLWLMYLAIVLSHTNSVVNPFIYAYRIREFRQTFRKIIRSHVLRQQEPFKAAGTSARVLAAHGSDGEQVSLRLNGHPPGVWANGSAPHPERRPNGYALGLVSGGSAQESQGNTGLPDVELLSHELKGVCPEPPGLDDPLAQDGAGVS
Assay: A2A adenosine receptor competition radioligand binding assay
Details: membranes from human A2A receptors transfected to HeLa cells, [3H]-ZM241385
Assign Ki to each entry below.

Ki reported for this compound COc1cccc(-c2nc(NC(=O)c3ccc(N4CCC(C(=O)O)CC4)nc3)sc2C#N)c1 : > 1000 nM

Recorded result, N#Cc1sc(NC(=O)c2ccc(N3CCC(C(=O)O)CC3)nc2)nc1-c1cccc(F)c1 , Ki: > 1000 nM

Lab note: N#Cc1sc(NC(=O)c2ccc(N3CCC(C(=O)O)CC3)nc2)nc1-c1cccs1 gave Ki of > 500 nM

Ki measured on N#Cc1sc(NC(=O)c2ccc(N3CCC(C(=O)O)CC3)nc2)nc1-c1ccccc1F = > 1000 nM

// recorded Ki for N#Cc1sc(NC(=O)c2ccc(N3CCC(C(=O)O)CC3)nc2)nc1-c1ccccc1 : > 1000 nM

* * *

Target: human A3 receptors (Homo sapiens (Human), UniProt P0DMS8)
Sequence (P0DMS8 whole entry): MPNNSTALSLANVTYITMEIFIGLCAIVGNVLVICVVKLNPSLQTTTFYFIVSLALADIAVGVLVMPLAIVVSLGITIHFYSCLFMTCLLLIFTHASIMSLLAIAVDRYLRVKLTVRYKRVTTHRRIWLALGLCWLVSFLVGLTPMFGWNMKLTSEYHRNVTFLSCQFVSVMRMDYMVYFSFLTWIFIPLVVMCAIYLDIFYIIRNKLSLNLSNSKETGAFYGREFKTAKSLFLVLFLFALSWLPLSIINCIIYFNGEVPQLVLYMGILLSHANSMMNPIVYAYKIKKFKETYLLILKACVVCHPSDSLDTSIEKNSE
Experiment: A3 adenosine receptor competition radioligand binding assay
Conditions: membranes from human A3 receptors transfected to CHO cells, [3H]-NECA
property_measured: Ki (nM)
Please give a number only; it is taken to be in nM.

Summary for this compound, N#Cc1sc(NC(=O)c2ccc(N3CCC(C(=O)O)CC3)nc2)nc1-c1cccc(F)c1 [Example 6] : Ki is 50.3

Consider N#Cc1sc(NC(=O)c2ccc(N3CCC(C(=O)O)CC3)nc2)nc1-c1cccs1 [Example 14] . Its measured Ki is 29.2

The compound identified as COc1cccc(-c2nc(NC(=O)c3ccc(N4CCC(C(=O)O)CC4)nc3)sc2C#N)c1 [Example 3] registered its Ki at 65.5

The reported Ki of the compound N#Cc1sc(NC(=O)c2ccc(N3CCC(C(=O)O)CC3)nc2)nc1-c1ccccc1F [Example 5] was 26.3

Summary for this compound, N#Cc1sc(NC(=O)c2ccc(N3CCC(C(=O)O)CC3)nc2)nc1-c1ccccc1 [Example 1] : Ki is 103

* * *

Hi there, I'd appreciate the recorded Ki for every entry that follows.
Target: hA1 receptors (Homo sapiens (Human), UniProt P30542)
Sequence (P30542 whole entry): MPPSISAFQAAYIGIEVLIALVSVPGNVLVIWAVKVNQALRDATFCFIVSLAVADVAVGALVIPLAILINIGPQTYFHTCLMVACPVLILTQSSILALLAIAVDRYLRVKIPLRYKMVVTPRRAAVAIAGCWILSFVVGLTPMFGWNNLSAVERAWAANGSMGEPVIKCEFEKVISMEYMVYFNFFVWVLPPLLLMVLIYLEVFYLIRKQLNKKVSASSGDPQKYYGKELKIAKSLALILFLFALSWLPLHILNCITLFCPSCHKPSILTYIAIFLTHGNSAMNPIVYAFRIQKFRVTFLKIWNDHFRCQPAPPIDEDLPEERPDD
Test: Adenosine A1 receptor subtype competition radioligand binding assay
Conditions: hA1 receptors transfected to CHO cells, [3H]DPCPX

Value of measured Ki for the entry N#Cc1sc(NC(=O)c2ccc(N3CCC(C(=O)O)CC3)nc2)nc1-c1cccc(F)c1 [Example 6] : > 1000 nM

response.value for COc1cccc(-c2nc(NC(=O)c3ccc(N4CCC(C(=O)O)CC4)nc3)sc2C#N)c1 [Example 3] (field: Ki) = > 1000 nM

get_value(item= N#Cc1sc(NC(=O)c2ccc(N3CCC(C(=O)O)CC3)nc2)nc1-c1ccccc1F [Example 5] , readout=Ki) returns > 500 nM

The value of Ki measured for the compound N#Cc1sc(NC(=O)c2ccc(N3CCC(C(=O)O)CC3)nc2)nc1-c1cccs1 [Example 14] turned out to be > 500 nM

Sample N#Cc1sc(NC(=O)c2ccc(N3CCC(C(=O)O)CC3)nc2)nc1-c1ccccc1 [Example 1] ; Ki observed: > 500 nM

* * *

Target: adenosine A2B receptor (Homo sapiens (Human))
Sequence (P29275 whole entry): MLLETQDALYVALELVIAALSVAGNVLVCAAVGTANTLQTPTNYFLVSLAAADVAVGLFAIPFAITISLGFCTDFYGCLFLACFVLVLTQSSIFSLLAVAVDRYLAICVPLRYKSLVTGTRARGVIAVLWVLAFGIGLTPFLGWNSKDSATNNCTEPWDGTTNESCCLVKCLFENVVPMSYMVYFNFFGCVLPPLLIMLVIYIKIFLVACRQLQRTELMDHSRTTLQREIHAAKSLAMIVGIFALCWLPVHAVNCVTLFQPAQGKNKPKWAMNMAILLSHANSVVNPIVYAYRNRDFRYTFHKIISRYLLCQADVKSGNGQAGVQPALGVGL
Assay: A2B adenosine receptor competition radioligand binding assay
Details: human recombinant source (HEK-293 cells), [3H]DPCPX
property_measured: Ki

# Ki (compound: N#Cc1sc(NC(=O)c2ccc(N3CCC(C(=O)O)CC3)nc2)nc1-c1cccs1 ) is > 1000 nM

compound N#Cc1sc(NC(=O)c2ccc(N3CCC(C(=O)O)CC3)nc2)nc1-c1ccccc1 , Ki observed: > 500 nM

Input N#Cc1sc(NC(=O)c2ccc(N3CCC(C(=O)O)CC3)nc2)nc1-c1ccccc1F . Output Ki: > 500 nM

Please fill in: Ki reported for N#Cc1sc(NC(=O)c2ccc(N3CCC(C(=O)O)CC3)nc2)nc1-c1cccc(F)c1 = > 1000 nM

Measured Ki, COc1cccc(-c2nc(NC(=O)c3ccc(N4CCC(C(=O)O)CC4)nc3)sc2C#N)c1 : > 1000 nM
